Where do the numbers come from? From patent US8324232B2.

- tgt: human recombinant ETA receptors (Homo sapiens, UniProt P25101)
- Sequence (P25101 21-427): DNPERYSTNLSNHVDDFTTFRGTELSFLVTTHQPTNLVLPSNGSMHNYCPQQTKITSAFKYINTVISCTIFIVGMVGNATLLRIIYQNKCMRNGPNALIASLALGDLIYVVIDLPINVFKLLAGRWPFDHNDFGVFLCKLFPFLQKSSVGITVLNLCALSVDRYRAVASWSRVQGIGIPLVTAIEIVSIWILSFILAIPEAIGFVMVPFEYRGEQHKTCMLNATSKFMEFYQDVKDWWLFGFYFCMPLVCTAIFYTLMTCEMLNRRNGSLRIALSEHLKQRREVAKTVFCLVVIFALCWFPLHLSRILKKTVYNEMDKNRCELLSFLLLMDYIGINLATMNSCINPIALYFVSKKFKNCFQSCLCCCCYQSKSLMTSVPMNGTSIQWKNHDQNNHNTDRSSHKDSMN
- experimentSummary: Inhibition of endothelin binding to membranes from CHO cells carrying human ETA receptors
parameter: IC50 (nM)
Kindly answer with a numeric value in nM, unit omitted.

### Prompt Need IC50 of NS(=O)(=O)Nc1ncnc(OCCOc2ncc(Br)cn2)c1-c1ccc(Br)cc1 , thanks.
### Response 3.7

###

- experimentSummary: Pharmacokinetics in the rat after single-dose oral administration
- Type: in vivo
- measurementSetup: oral, male Wistar rats, 10 mg/kg, plasma
parameter: clearance (mL/min/kg)
Kindly answer with a numeric value in mL/min/kg, unit omitted.

### Prompt Need clearance of NS(=O)(=O)Nc1ncnc(OCCOc2ncc(Br)cn2)c1-c1ccc(Br)cc1 [Compound of formula I] , thanks.
### Response 1.3
